# assay target: Recombinant STAT3 protein (STAT3(G127-I722)) (Homo sapiens)
# Construct: Recombinant STAT3 protein (STAT3(G127-I722))
# Sequence (P40763 127-722): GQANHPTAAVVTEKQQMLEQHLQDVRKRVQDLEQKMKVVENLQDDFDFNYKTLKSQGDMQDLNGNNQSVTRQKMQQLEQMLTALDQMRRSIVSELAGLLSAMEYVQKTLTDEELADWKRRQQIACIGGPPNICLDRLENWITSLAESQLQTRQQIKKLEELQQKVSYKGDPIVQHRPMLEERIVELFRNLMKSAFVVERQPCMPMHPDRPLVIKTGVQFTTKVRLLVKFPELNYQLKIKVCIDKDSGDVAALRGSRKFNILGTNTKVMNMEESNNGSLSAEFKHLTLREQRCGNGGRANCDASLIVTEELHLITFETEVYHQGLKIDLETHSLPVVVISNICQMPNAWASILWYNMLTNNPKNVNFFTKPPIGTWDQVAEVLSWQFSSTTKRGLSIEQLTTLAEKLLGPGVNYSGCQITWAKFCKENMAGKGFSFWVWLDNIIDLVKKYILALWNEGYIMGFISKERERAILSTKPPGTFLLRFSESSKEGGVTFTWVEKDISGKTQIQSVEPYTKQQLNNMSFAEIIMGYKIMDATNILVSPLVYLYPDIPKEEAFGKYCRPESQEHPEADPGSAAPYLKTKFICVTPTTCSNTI
# method summary: STAT3 Fluorescence Polarization (FP) Assay
# Assay type: binding
# applied conditions: STAT3(G127-I722) 25 nM, probe 5-FAM-GpYLPQTV-NH2 2 nM, 45-minute incubation
quantity name: IC50

For orientation, consider the following solved cases.
CC(=O)N1CC[C@H]2CC[C@@H](C(=O)N3C[C@@H](C#N)C[C@H](c4ccccc4)C3)N2C(=O)[C@@H](NC(=O)c2cc3cc(C(F)(F)P(=O)(O)O)ccc3s2)C1 (relative stereo) [Compound 153] ... 1 to 10 µM
N#Cc1cccc(C2CN(C(=O)[C@@H]3CC[C@@H]4CCN(Cc5ncccn5)C[C@H](NC(=O)c5cc6cc(CP(=O)(O)O)ccc6s5)C(=O)N43)C2)n1 [Compound 399] ... 0.1 to 1 µM
Cc1ccc2[nH]nc(C(=O)N3CC[C@H]4CC[C@@H](C(=O)N(C)C)N4C(=O)[C@@H](NC(=O)c4cc5cc(CP(=O)(O)O)ccc5s4)C3)c2c1 [Compound 230] ... > 10 µM

Req: Would you kindly share the measured IC50 for CC(=O)N1CC[C@H]2CC[C@@H](C(=O)Nc3ccc4c(cnn4C)c3)N2C(=O)[C@@H](NC(=O)c2cc3cc(C(F)(F)P(=O)(O)O)ccc3s2)C1 [Compound 161] ?
Resp: 1 to 10 µM

Req: Try CC(=O)N1CC[C@H]2CC[C@@H](C(=O)N(C)c3ccccc3)N2C(=O)[C@@H](NC(=O)c2cc3cc(C(C#N)P(=O)(O)O)ccc3s2)C1 (stereo partly shown) [Compound 16] next.
Resp: > 10 µM

Req: Try CCN(C(=O)[C@@H]1CC[C@@H]2CCN(C(C)=O)C[C@H](NC(=O)c3cc4cc(C(F)(F)P(=O)(O)O)ccc4[nH]3)C(=O)N21)c1ccccc1 [Compound 169] next.
Resp: 1 to 10 µM

Req: Try CC(=O)N1CC[C@H]2CC[C@@H](C(=O)N3CC(c4cc(F)cc(F)c4)[C@@H](C#N)C3)N2C(=O)[C@@H](NC(=O)c2cc3cc(C(F)(F)P(=O)(O)O)ccc3s2)C1 (relative stereo) [Compound 142] next.
Resp: 1 to 10 µM
